Target: UniProtKB P51617
Sequence (P51617 whole entry): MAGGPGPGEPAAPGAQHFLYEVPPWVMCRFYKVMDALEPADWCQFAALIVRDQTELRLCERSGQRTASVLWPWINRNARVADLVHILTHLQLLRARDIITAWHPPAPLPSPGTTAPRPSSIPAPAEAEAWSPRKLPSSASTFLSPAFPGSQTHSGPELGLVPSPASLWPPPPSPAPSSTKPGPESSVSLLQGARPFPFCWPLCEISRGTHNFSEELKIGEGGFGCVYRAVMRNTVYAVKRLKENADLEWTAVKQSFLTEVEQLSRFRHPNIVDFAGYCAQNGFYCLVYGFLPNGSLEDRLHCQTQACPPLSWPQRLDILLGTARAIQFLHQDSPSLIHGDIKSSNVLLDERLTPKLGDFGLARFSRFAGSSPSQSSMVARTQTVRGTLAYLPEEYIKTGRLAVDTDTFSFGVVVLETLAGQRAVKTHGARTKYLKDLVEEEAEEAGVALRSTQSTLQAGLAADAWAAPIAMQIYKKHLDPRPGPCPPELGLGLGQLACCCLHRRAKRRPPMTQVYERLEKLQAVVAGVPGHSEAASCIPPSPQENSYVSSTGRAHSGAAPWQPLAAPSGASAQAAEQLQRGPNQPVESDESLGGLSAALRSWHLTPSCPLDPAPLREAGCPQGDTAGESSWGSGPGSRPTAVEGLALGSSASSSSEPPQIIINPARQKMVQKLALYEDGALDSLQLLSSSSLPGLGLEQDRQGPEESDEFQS
Measured metric: pKd
Give bare numbers, as −log10 of the molar value.

compound COC(=O)Nc1nc2ccc([S+]([O-])c3ccccc3)cc2[nH]1 (stereo not shown) , pKd observed: 5.24

Data credit: paper PMC6428421
